assayNotes: RP, Phenomenex Kinetex EVO C18, 150 × 3 mm, 2.6 µm, 40 °C, 0.35 mL/min, estimated dead time 1.9 min; A: water + 5 mM ammonium formate, pH 5; B: acetonitrile; gradient (min/%B) 0/5 20/100 25/100 30/5
recordedConditions: stereoisomer not certain
Is LC retention time at least 10 min? Then T. If not, F.

These recorded examples may help you get a feel for the data.
- molecule: "CCC1=C(C)CN(C(=O)NCCc2ccc(S(=O)(=O)NC(=O)NC3CCC(C)CC3)cc2)C1=O (stereo not drawn) [Glimepiride]"
  group: "T"
- molecule: "CCCCC(=O)N(Cc1ccc(-c2ccccc2-c2nn[nH]n2)cc1)C(C(=O)O)C(C)C (stereo not drawn)"
  group: "F"

Input line: hey, is LC retention time for this one >= 10 min? CC(C)C1=CC2=CCC3C(C)(C(=O)O)CCCC3(C)C2CC1 (stereo not drawn)
Output line: T

Input line: hey, is LC retention time for this one >= 10 min? CC(=O)OCC(=O)C1(O)CCC2C3CCC4=CC(=O)CCC4(C)C3C(O)CC21C (stereo not drawn) [Hydrocortisonacetate]
Output line: T

Input line: hey, is LC retention time for this one >= 10 min? CC(C)COP(=O)(OCC(C)C)OCC(C)C [Tri-isobutyl phosphate]
Output line: T

Input line: hey, is LC retention time for this one >= 10 min? Cc1cccc(C)c1N(Cn1cccn1)C(=O)CCl
Output line: T

---

assayNotes: RP, Phenomenex Kinetex EVO C18, 150 × 3 mm, 2.6 µm, 40 °C, 0.35 mL/min, estimated dead time 1.9 min; A: water + 0.1% formic acid, pH 3; B: methanol; gradient (min/%B) 0/5 20/100 25/100 30/5
recordedConditions: stereoisomer not certain
Answer each item with its documented LC retention time.
Numbers only, in min.

- compound: "CC(C)COP(=O)(OCC(C)C)OCC(C)C [Tri-isobutyl phosphate]"
  LC retention time / min: 17.8

# batch size: 2; output LC retention time per entry
1. COC(=O)C1CCCCC1S(=O)(=O)NC(=O)NC1=NC(OC)NC(C)N1 (stereo not drawn) [Metsulfuron-methyl]
2. O=P(Oc1ccccc1)(Oc1ccccc1)Oc1ccccc1 [Triphenylphosphate]

Output line:
12.2
17.2

---

assayNotes: RP, Phenomenex Kinetex PS C18, 150 × 3 mm, 2.6 µm, 40 °C, 0.35 mL/min, estimated dead time 1.9 min; A: water + 5 mM ammonium acetate, pH 5; B: methanol; gradient (min/%B) 0/5 20/100 25/100 30/5
recordedConditions: stereoisomer not certain
Answer each item with its documented LC retention time.
Answers are plain numbers, in min.

# batch size: 8; output LC retention time per entry
1. CCOP(=S)(OCC)Oc1ccc([N+](=O)[O-])cc1 [Parathion]
2. c1ccc2nccnc2c1 [Quinoxaline]
3. CC(O)(CS(=O)(=O)c1ccc(F)cc1)C(=O)Nc1ccc(C#N)c(C(F)(F)F)c1 (configuration not stated) [Bicalutamide]
4. O=C(NCC1CCCCN1)c1cc(OCC(F)(F)F)ccc1OCC(F)(F)F (configuration not stated) [Flecainide]
5. CCN=C1NC(=NCC)NC(Cl)N1 (configuration not stated) [Simazine]
6. c1ccc2scnc2c1 [Benzothiazole]
7. Oc1ccc2ccc3cccc4ccc1c2c34 [1-hydroxypyrene]
8. CCCN(CCC)c1c([N+](=O)[O-])cc(C(F)(F)F)cc1[N+](=O)[O-] [Trifluralin]

Output line:
16.7
9.84
14.6
12.8
12.4
11.5
16.7
19

# batch size: 3; output LC retention time per entry
1. Cc1ccc(S(=O)(=O)N(C)N=O)cc1 [N-Methyl-N-nitrosotoluene-4-sulphonamide]
2. CC(=O)N1CCN(c2ccc(OCC3COC(Cn4ccnc4)(c4ccc(Cl)cc4Cl)O3)cc2)CC1 (configuration not stated) [Ketoconazole]
3. CCN=C1NC(NC(C)C)=NC(Cl)N1 (configuration not stated) [Atrazine]

Output line:
[13.9, 17.6, 13.9]

# batch size: 5; output LC retention time per entry
1. CCOP(=S)(OCC)Oc1nc(Cl)c(Cl)cc1Cl [Chlorpyrifos]
2. NS(=O)(=O)c1cc2c(cc1Cl)NCNS2(=O)=O [Hydrochlorothiazide]
3. Nc1nc(N)nc(N)n1 [Melamine]
4. O=P(Oc1ccccc1)(Oc1ccccc1)Oc1ccccc1 [Triphenylphosphate]
5. CC12CCC3c4ccc(O)cc4CCC3C1CCC2=O (configuration not stated) [Estrone]

Output line:
[18.8, 13.8, 2.33, 17.3, 15.7]

# batch size: 2; output LC retention time per entry
1. CCc1cccc(C)c1N(C(=O)CCl)C(C)COC (configuration not stated) [Metolachlor]
2. CCOP(=O)(OCC)OCC [Triethyl phosphate]

Output line:
1. 16.6
2. 11.2
